Record form. Attribute: pIC50. Fill in for each entry.
- System: human GI microtissue
- protocolText: MTT viability assay
- Assay type: cell-based
- testConditions: Caco-2, read-out: MTT IC50
pIC50: −log10 of the molar value.

Consider the following items and state reported pIC50 for each.
1. CC(=O)[C@]1(O)Cc2c(O)c3c(c(O)c2[C@@H](O[C@H]2C[C@H](N)[C@H](O)[C@H](C)O2)C1)C(=O)c1ccccc1C3=O
2. CN(C)C/C=C/C(=O)Nc1cc2c(Nc3ccc(F)c(Cl)c3)ncnc2cc1O[C@H]1CCOC1
3. C=CC[C@@H]1/C=C(\C)C[C@H](C)C[C@H](OC)[C@H]2O[C@@](O)(C(=O)C(=O)N3CCCC[C@H]3C(=O)O[C@H](/C(C)=C/[C@@H]3CC[C@@H](O)[C@H](OC)C3)[C@H](C)[C@@H](O)CC1=O)[C@H](C)C[C@@H]2OC
4. CO[C@H]1O[C@H](COS(=O)(=O)O)[C@@H](O[C@@H]2O[C@@H](C(=O)O)[C@@H](O[C@H]3O[C@H](COS(=O)(=O)O)[C@@H](O[C@@H]4O[C@H](C(=O)O)[C@@H](O[C@H]5O[C@H](COS(=O)(=O)O)[C@@H](O)[C@H](O)[C@H]5NS(=O)(=O)O)[C@H](O)[C@H]4O)[C@H](OS(=O)(=O)O)[C@H]3NS(=O)(=O)O)[C@H](O)[C@H]2OS(=O)(=O)O)[C@H](O)[C@H]1NS(=O)(=O)O
5. CN(CCOc1ccc(NS(C)(=O)=O)cc1)CCc1ccc(NS(C)(=O)=O)cc1 [Dofetilide]
6. C[C@]12C=CC(=O)C=C1CC[C@H]1[C@@H]3C[C@@H](O)[C@](O)(C(=O)CO)[C@@]3(C)C[C@H](O)[C@@]12F
7. C[C@@H]1C[C@H]2[C@@H]3CCC4=CC(=O)C=C[C@]4(C)[C@@]3(F)[C@@H](O)C[C@]2(C)[C@@]1(O)C(=O)CO

OUTPUT:
5.00
4.52
4.26
< 4.00
< 4.00
< 4.00
< 4.00

Consider the following items and state reported pIC50 for each.
1. CC(C)(C)NC(=O)[C@H]1CC[C@H]2[C@@H]3CC[C@H]4NC(=O)C=C[C@]4(C)[C@H]3CC[C@]12C [Finasteride]
2. CC(C)C[C@H](NC(=O)[C@H](Cc1ccccc1)NC(=O)c1cnccn1)B(O)O

OUTPUT:
["< 4.00", "< 4.00"]

Consider the following items and state reported pIC50 for each.
1. O=C(NCC1CCCCN1)c1cc(OCC(F)(F)F)ccc1OCC(F)(F)F (stereo not drawn) [Flecainide]
2. COc1cc2nc(N(C)CCCNC(=O)C3CCCO3)nc(N)c2cc1OC (stereo not drawn)

OUTPUT:
["< 4.00", "< 4.00"]

INPUT: Provide pIC50 value for the following compound: CC(=O)O[C@@]12CO[C@@H]1C[C@H](O)[C@@]1(C)C(=O)[C@H](O)C3=C(C)[C@@H](OC(=O)[C@H](O)[C@@H](NC(=O)OC(C)(C)C)c4ccccc4)C[C@@](O)([C@@H](OC(=O)c4ccccc4)[C@H]21)C3(C)C
OUTPUT: 4.19

----------
- System: Caco-2 cells
- testConditions: Caco-2 transwell; top conc. 100 μM; unit inferred
propertyLabel: Caco-2 TEER IC15

| compound | testTarget | result |
| --- | --- | --- |
| CC(C)(C)NCC(O)COc1cccc2c1CC(O)C(O)C2 (centres unmarked) [Nadolol] | Caco-2 cells | > 100 µM |

Consider the following items and state reported Caco-2 TEER IC15 for each.
1. CO[C@H]1O[C@H](COS(=O)(=O)O)[C@@H](O[C@@H]2O[C@@H](C(=O)O)[C@@H](O[C@H]3O[C@H](COS(=O)(=O)O)[C@@H](O[C@@H]4O[C@H](C(=O)O)[C@@H](O[C@H]5O[C@H](COS(=O)(=O)O)[C@@H](O)[C@H](O)[C@H]5NS(=O)(=O)O)[C@H](O)[C@H]4O)[C@H](OS(=O)(=O)O)[C@H]3NS(=O)(=O)O)[C@H](O)[C@H]2OS(=O)(=O)O)[C@H](O)[C@H]1NS(=O)(=O)O [Fondaparinux]
2. C=CC[C@@H]1/C=C(\C)C[C@H](C)C[C@H](OC)[C@H]2O[C@@](O)(C(=O)C(=O)N3CCCC[C@H]3C(=O)O[C@H](/C(C)=C/[C@@H]3CC[C@@H](O)[C@H](OC)C3)[C@H](C)[C@@H](O)CC1=O)[C@H](C)C[C@@H]2OC [Tacrolimus]
3. CCCCC[C@H](O)/C=C/[C@@H]1[C@H]2C/C(=C/CCCC(=O)O)O[C@H]2C[C@H]1O [Prostacyclin]
4. C[C@]12C=CC(=O)C=C1CC[C@H]1[C@@H]3C[C@@H](O)[C@](O)(C(=O)CO)[C@@]3(C)C[C@H](O)[C@@]12F [Triamcinolone]

OUTPUT:
1: > 100 µM; 2: 30 µM; 3: > 100 µM; 4: > 100 µM

Values from paper PMC6390652
